meta.source: the supplement of paper PMC8967900

System: CCRF-HSB2
Assay: selective drug sensitivity score (sDSS, relative to normal bone marrow) (sDSS (score)); higher = more potent and effective on the cell line relative to normal bone marrow cells;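 note: ALL cell lines in 384-well plates, five doses spanning 10,000-fold, each plate scaled between vehicle and 100 µmol/L benzalkonium chloride controls, sDSS an adapted area-under-curve metric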
Details: 72 h
Returns 1.0 if the recorded selective drug sensitivity score is greater than or equal to 2, and 0.0 otherwise.

As a guide, the following entries are already answered.
O=c1[nH]cc(F)c(=O)[nH]1 [Fluorouracil] (top concentration 10000 nM) ... 0.0
Nc1nc(F)nc2c1ncn2[C@@H]1O[C@H](CO)[C@@H](O)[C@@H]1O [Fludarabine] (top concentration 10000 nM) ... 0.0
Cc1ccc(F)c(NC(=O)Nc2ccc(-c3cccc4[nH]nc(N)c34)cc2)c1 [Linifanib] (top concentration 1000 nM) ... 0.0
CCn1c(C(=O)N(C2CC2)C2CC2)cc2c3c(ncn3C)c(Nc3cc(C)n(C)n3)nc21 (top concentration 10000 nM) ... 1.0
CCc1c2c(nc3ccc(O)cc13)-c1cc3c(c(=O)n1C2)COC(=O)[C@]3(O)CC [SN-38] (top concentration 10000 nM) ... 1.0

query: Is it the case that CNC(=O)c1nn(C)c2c1C(C)(C)Cc1cnc(Nc3ccc(N4CCN(C)CC4)cc3)nc1-2 [Milciclib] (top concentration 10000 nM) has selective drug sensitivity score reaching or exceeding 2?
result: 1.0

query: What about O=C(NC1CCNCC1)c1n[nH]cc1NC(=O)c1c(Cl)cccc1Cl [AT7519] (top concentration 10000 nM) ?
result: 0.0

---

Tested on: HPB-ALL
Test: selective drug sensitivity score (sDSS, relative to normal bone marrow) (sDSS (score)); higher = more potent and effective on the cell line relative to normal bone marrow cells
Settings: 72 h
Returns Criterion met if the recorded selective drug sensitivity score is greater than or equal to 3, and Criterion not met otherwise.

As a guide, the following entries are already answered.
CCCN(CCC)C(=O)C1=Cc2ccc(-c3ccc(C(=O)N4CCCC4)cc3)cc2N=C(N)C1 [Motolimod] (top concentration 10000 nM) ... Criterion not met
Nc1ccn([C@@H]2O[C@H](CO)[C@@H](O)[C@@H]2O)c(=O)n1 [Cytarabine] (top concentration 10000 nM) ... Criterion not met
CCC(C)(C)C(=O)O[C@H]1C[C@@H](C)C=C2C=C[C@H](C)[C@H](CC[C@@H]3C[C@@H](O)CC(=O)O3)[C@H]21 [Simvastatin] (top concentration 10000 nM) ... Criterion not met
CNC(=O)c1cccc2cc(Oc3ccnc4cc(OCC5(N)CC5)c(OC)cc34)ccc12 [Lucitanib] (top concentration 10000 nM) ... Criterion met
CNC(=O)c1nn(C)c2c1C(C)(C)Cc1cnc(Nc3ccc(N4CCN(C)CC4)cc3)nc1-2 [Milciclib] (top concentration 10000 nM) ... Criterion met

API: the following record is the query input.
query: Is it the case that CCN(CC)Cc1ccc2cc(COC(=O)Nc3ccc(C(=O)NO)cc3)ccc2c1 [Givinostat] (top concentration 1000 nM) has selective drug sensitivity score reaching or exceeding 3?
result: Criterion met

---

System: MOLT-14
Test: selective drug sensitivity score (sDSS, relative to normal bone marrow) (sDSS (score)); higher = more potent and effective on the cell line relative to normal bone marrow cells
Conditions: 72 h
parameter: selective drug sensitivity score
Please give only the number in your answer, with no unit.

query: // map CC[C@H](C)C(=O)O[C@H]1C[C@H](O)C=C2C=C[C@H](C)[C@H](CC[C@@H](O)C[C@@H](O)CC(=O)O)[C@H]21 [Pravastatin] (top concentration 10000 nM) to recorded selective drug sensitivity score (system: MOLT-14)
result: -0.16

query: What about CC(C)c1cc(-c2n[nH]c(=O)n2-c2ccc3c(ccn3C)c2)c(O)cc1O [Ganetespib] (top concentration 1000 nM) ?
result: 1.74

query: What about Cc1cn(-c2cc(NC(=O)c3ccc(C)c(Nc4nccc(-c5cnccn5)n4)c3)cc(C(F)(F)F)c2)cn1 [Radotinib] (top concentration 10000 nM) ?
result: 0.6

query: What about Cc1cc2c(C(=O)NC[C@H](C)c3ccccc3)c(O)c(O)cc2c(O)c1-c1c(C)cc2c(C(=O)NC[C@H](C)c3ccccc3)c(O)c(O)cc2c1O [Sabutoclax] (top concentration 25000 nM) ?
result: 16.8

query: What about CN(C)C[C@@H]1CCn2cc(c3ccccc32)C2=C(C(=O)NC2=O)c2cn(c3ccccc23)CCO1 [Ruboxistaurin] (top concentration 10000 nM) ?
result: 1.66
